assay: Particle sizing by dynamic light scattering (DynaPro plate reader), in vitro formulations; format: physicochemical; details: in vitro formulation a: Cationic lipid/Example 73/DSPC/Chol 45/10/15/30 wt %, lipid:siRNA 25:1
REPORTED PROPERTY: Size distribution (PDI)

[[record]]
compound = "CCCCC/C=C\\C/C=C\\CCCCCCCCOCC(CCN1CCN(c2ccccc2)CC1)OCCCCCCCC/C=C\\C/C=C\\CCCCC (stereo not shown)"
reported_property = "Size distribution (PDI)"
assay_value = 0.070

[[record]]
compound = "CCCCC/C=C\\C/C=C\\CCCCCCCCOCC(CCN1CCN(C)CC1)OCCCCCCCC/C=C\\C/C=C\\CCCCC (stereo not shown)"
reported_property = "Size distribution (PDI)"
assay_value = 0.16

[[record]]
compound = "CCCCC/C=C\\C/C=C\\CCCCCCCCOCC(CCN(C)Cc1ccccc1)OCCCCCCCC/C=C\\C/C=C\\CCCCC (stereo not shown)"
reported_property = "Size distribution (PDI)"
assay_value = 0.2

[[record]]
compound = "CCCCC/C=C\\C/C=C\\CCCCCCCCOCC(CCN(C)CCc1ccccn1)OCCCCCCCC/C=C\\C/C=C\\CCCCC (stereo not shown)"
reported_property = "Size distribution (PDI)"
assay_value = 0.168


---

assay: RiboGreen assay of siRNA encapsulation efficiency, in vivo formulations of Lipid-Based Particles; assay type: physicochemical; details: in vivo formulation A: Cationic lipid/Example 73/DSPC/Chol 45/10/15/30 wt %, lipid:siRNA 25:1
REPORTED PROPERTY: % Encapsulation Efficiency

[[record]]
compound = "CCCCC/C=C\\C/C=C\\CCCCCCCCOCC(CCN1CCOCC1)OCCCCCCCC/C=C\\C/C=C\\CCCCC (stereo not drawn)"
assay_value = "83.6%"

[[record]]
compound = "CCCCC/C=C\\C/C=C\\CCCCCCCCOCC(CCN(C)CCOC)OCCCCCCCC/C=C\\C/C=C\\CCCCC (stereo not drawn)"
assay_value = "74%"

[[record]]
compound = "CCCCC/C=C\\C/C=C\\CCCCCCCCOCC(CCN1CCCC1)OCCCCCCCC/C=C\\C/C=C\\CCCCC (stereo not drawn)"
assay_value = "96.6%"

[[record]]
compound = "CCCCC/C=C\\C/C=C\\CCCCCCCCOCC(CCN1CCCCC1)OCCCCCCCC/C=C\\C/C=C\\CCCCC (stereo not drawn)"
assay_value = "74%"

[[record]]
compound = "CCCCC/C=C\\C/C=C\\CCCCCCCCOCC(CCN(C)CCN(C)C)OCCCCCCCC/C=C\\C/C=C\\CCCCC (stereo not drawn)"
assay_value = "87.5%"

[[record]]
compound = "CCCCC/C=C\\C/C=C\\CCCCCCCCOCC(CCOCCN1CCCC1)OCCCCCCCC/C=C\\C/C=C\\CCCCC (stereo not drawn)"
assay_value = "93.3%"


---

Experiment: Particle sizing by dynamic light scattering (DynaPro plate reader), in vitro formulations
Type: physicochemical
Settings: in vitro formulation a: Cationic lipid/Example 73/DSPC/Chol 45/10/15/30 wt %, lipid:siRNA 25:1
Experimental: The siRNA concentrations were measured using Quanti-iT RiboGreen RNA reagent (Molecular Probes, (R11490)). Vesicle sizes were characterized by dynamic light scattering with a DynaPro™ Plate Reader (Wyatt Technology) in 96-well half-area UV plate (Coring) after diluting the formulation sample (20 μL) in phosphate buffered saline (80 μL) at a pH of about 7-8. […] Encapsulation efficiency (EE) was calculated using data obtained from a RiboGreen assay. […]
REPORTED PROPERTY: Size (nm)

[[record]]
compound = "CCCCC/C=C\\C/C=C\\CCCCCCCCOCC(CCN1CCN(c2ccccc2OC)CC1)OCCCCCCCC/C=C\\C/C=C\\CCCCC (stereo not shown)"
reported_property = "Size"
assay_value = 130

[[record]]
compound = "CCCCC/C=C\\C/C=C\\CCCCCCCCOCC(CCN1CCC(N(C)C)CC1)OCCCCCCCC/C=C\\C/C=C\\CCCCC (stereo not shown)"
reported_property = "Size"
assay_value = 70.9

[[record]]
compound = "CCCCC/C=C\\C/C=C\\CCCCCCCCOCC(CCN(C)Cc1ccccc1)OCCCCCCCC/C=C\\C/C=C\\CCCCC (stereo not shown)"
reported_property = "Size"
assay_value = 154

[[record]]
compound = "CCCCC/C=C\\C/C=C\\CCCCCCCCOCC(CCN(CC)CC)OCCCCCCCC/C=C\\C/C=C\\CCCCC (stereo not shown)"
reported_property = "Size"
assay_value = 192

